Just for reference, patent US20190010233A1 is where these values come from.

System name: T1, full length human PD-L1 on cells (human, UniProt Q9NZQ7 19-290)
T1 construct: Also used as the target of the cell-based functional assays (transfected stimulator cells; PD-L1 of the cells in the mixed lymphocyte reaction); also called CHO-K1-hPD-L1; CHOK1-hPD-L1
T1 sequence (Q9NZQ7 19-290 limits assumed): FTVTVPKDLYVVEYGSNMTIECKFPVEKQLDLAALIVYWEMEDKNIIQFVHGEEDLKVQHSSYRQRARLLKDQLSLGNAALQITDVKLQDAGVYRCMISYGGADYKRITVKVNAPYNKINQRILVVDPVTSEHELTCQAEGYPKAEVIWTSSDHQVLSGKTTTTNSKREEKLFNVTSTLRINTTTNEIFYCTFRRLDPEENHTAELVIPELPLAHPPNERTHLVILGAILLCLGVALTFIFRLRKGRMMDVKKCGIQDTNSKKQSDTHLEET
Experiment notes: FACS CHO-K1-hPD-L1, 100.00 nM mAb
Property: Mean fluorescence intensity
Give a plain numeric answer without units written out.

Before answering, review these 2 worked examples.
| Binder | Mean fluorescence intensity |
| --- | --- |
| chimeric anti-PD-L1 antibody 105C5D7 (antibody, V domains shown, Purified from hybridoma of Harbour H2L2 mice: human variable regions, rat constant regions) VH: EVQLVESGGGLVQPGGSLRLSCAASGFTFSSYWMSWVRQAPGKGLEWVANIKQDGNEKYYVDSVKGRFTISRDNAKNSLYLQMNSLRAEDTAVYYCARNIKWGDAFDIWGQGTMVTVSS VL: DIQMTQSPSSLSASVGDRVTITCRASQSISSYLNWYQQKPGKAPKLLIYAASSLQSGVPSRFSGSGSGTDFTLTISSLQPEDFAIYSCQQSYSIPLTFGGGTKVEIK | 182 |
| chimeric anti-PD-L1 antibody 73D3G2 (antibody, V domains shown, Purified from hybridoma of Harbour H2L2 mice: human variable regions, rat constant regions) VH: EVQLVESGGGLVQPGGSLRLSCAASGFTFNTYWMNWVRQAPGRGLEWVANIKQDGGEKYYVDSVKGRFTISRDNAKNSLYLQMNSLRAEDTAMYYCARDGRSWYPDAFDIWGQGTVVTVSS VL: DIQMTQSPSTLSASVGDRVTITCRASQSISTWLAWYQQKLGKAPKLLIYEVSILESGVPSRFSGSGSGTEFTLTISSLQPDDFATYYCQQYHSFSSFGGGTRVEIK | 124 |

In: Give the measured Mean fluorescence intensity of chimeric anti-PD-L1 antibody 127D2F3 (antibody, V domains shown, Purified from hybridoma of Harbour H2L2 mice: human variable regions, rat constant regions) VH: EVQLVESGGGLVQPGGSLRLSCVASGFTFSSYWMSWVRQAPGKGLEWVANIKQDGSEKYYVDSVKGRLTISRDNAKNSLYLQMKSLRAEDTAVYYCARDPIYSSYFDYWGQGILVTVSS VL: DIQMTQSPSSLSASVGDRVTITCRASQSISNYLNWYQQKPGKAPKLLIYAASSLQSGVPSRFSGSGSGTDFTLTISSLQPEDFAAYYCQQSYGIPFTFGPGTKVDIK .
Out: 234
